Ref: PubChem BioAssay (NCI)

Tested on: SK-OV-3 ovarian
Test: NCI tumour cell line growth inhibition, 48 h
Readout: TGI

Give the measured TGI of `Nc1ccccc1CCN1CCN(CCCc2ccccc2)CC1` .
> 100 µM

Can you look up the measured TGI of O=C(NN1C(=O)C(Cl)C1c1ccc(Cl)cc1)c1c(Cl)c(Cl)c(Cl)c(Cl)c1-c1nc2ccccc2[nH]1 (configuration not stated) for me?
> 100 µM

Which measured TGI value corresponds to C=C1C(=O)OC2/C=C(\C(=O)O)CC/C=C(\C)CC(OC(=O)/C=C(\C)CC)C12 (configuration not stated) ?
37.9 µM

What does the record list as TGI for CC1=C2C(O)C(C(C)C(=O)N(C)C)CCC2(C)C=CC1=O (configuration not stated) ?
> 100 µM

Consider the compound shown here: `CN(C)Cc1cc(C(F)(F)F)ccc1C(O)(c1ccccc1)c1ccccc1` What is its recorded TGI?
56.5 µM

Look up TGI: O=S(=O)(C1=CC(S(=O)(=O)c2ccccc2)CN(Cc2ccccc2)C1c1cccc2ccccc12)c1ccccc1 (configuration not stated)
> 69 µM

Give the measured TGI of `Cc1ccc(S(=O)(=O)Nc2cccc3c(=O)[nH]cnc23)cc1` .
> 100 µM

Item under review: `N[C@@H]1CCN(c2c(F)cc3c(=O)c(C(=O)O)cn4c3c2Oc2c-4ccc3c2ccc2ccccc23)C1` . Reported TGI?
> 100 µM

Report TGI for `CC1(C)OCN(c2ccc(N3CCOCC3)cc2)Cn2c1nc1ccccc12` please.
> 100 µM

Report TGI for COc1cc(C2c3cc4c(cc3OC(C)(N3CCCC3)C2C)OCO4)cc(OC)c1OC (configuration not stated) please.
> 62.6 µM

Record request: TGI value, item `CN(C)/C=C/C(=CC=[N+](C)C)/C=C/N(C)C`
> 100 µM

Any idea what its TGI is? The compound is Nc1ncnc2c1ncn2C1C=C(CO)C(O)C1O (configuration not stated)
44.2 µM

Query: TGI; subject: O=C(O)c1c2c(cc3c1CC(Cc1ccccc1)C3=O)CCC2 (configuration not stated)
> 100 µM

What measured TGI goes with Cc1ccc(S(=O)(=O)N/N=C2\CCCCC23CCC(=O)NC3)cc1 (configuration not stated) ?
> 100 µM

What does the record list as TGI for CCC1C[N+]23CCc4c([nH]c5ccccc45)C2CC1CC3 (configuration not stated) ?
> 100 µM

If you can, please state the reported TGI value of `Cc1cc(Cl)ccc1OCC(=O)Nc1nc2c(Cl)cccc2s1` .
> 100 µM

# TGI lookup, item C=C(C)C1CC2(C)C(C)CC(O)CC2C(OC(=O)C=C(C)C)C1O (configuration not stated)
> 100 µM

GET /values?readout=TGI&item= COC1OC(CS(=O)(=O)O)C(O)C(O)C1O (configuration not stated)
> 100 µM

Recorded TGI for `CN(C)CCOc1ccc([N+](=O)[O-])c2cccnc12` , please?
> 100 µM

// query TGI value for entry `S=C(N/N=C/c1ccccn1)N1CCCCC1`
> 38.8 µM

Reported TGI for `C/C(=N\NS(=O)(=O)c1ccc(C)cc1)c1ccccn1` : what is it?
> 100 µM

// TGI lookup, key: `Nc1n[nH]c2cccc(C#Cc3cccc(NC(=O)c4cccc(C(F)(F)F)c4)c3)c12`
10.2 µM
